- Test system: MS2 coat protein
- Test description: apparent KD of MS2 coat protein; designed switch direction (-1 OFF switch, 1 ON switch): 1; higher = weaker reporter binding
- Test parameters: input ligand: none
Decision: apparent KD of MS2 coat protein >= 40 nM yields T, all other cases yield F.

Sequence	Study system	Class name
GUGCUCGUGUGAGGAUAUGCUUCCGUUUCGGCUGCAGAAGGUACUAUUAUACAUGAGGAUCACCCAUGUCUCUUUUCUCCGGUG [salish99_SSNG1_r04_913] (Eterna round: R96, puzzle: Same State NG 1)	MS2 coat protein	F
CAAUAAAACACAGGAUAUACAGCCAGCCAGGCUGUAGAAGGGUGAGACAUGAGGAUCACCCAUGUACAAGUCGUAGGACUUGGG [Edlaticeen] (Eterna round: R96, puzzle: Same State NG 1)	MS2 coat protein	T
GGGCCACAUGAGGAUCACCCAUGUGGAGCUAGUGCACGGUCACAGGAUAUCUCGUGGGCGUAUAGGGAGAAGGGUGAUUCAUUA [Eternabot solution 18] (Eterna round: R96, puzzle: Same State NG 3)	MS2 coat protein	T
UGUACCUUCACAGGAUAUCAUGCGAAAAUUGCGUGAGAAGGGUGAAUACUGUGUUAAUAAAAGCACAUGAGGAUCACCCAUGUA [SameState NG1 #57] (Eterna round: R96, puzzle: Same State NG 1)	MS2 coat protein	T

Say whether UGGCUCAGACGAGGAUAUAUGUAAUAACAUGAGGAUCACCCAUGUGUCGAGCUUCGGCUCGACACAUAGAAGGCGUCUGAGCCU [SSNG2/2-A3] (Eterna round: R96, puzzle: Same State NG 2) shows apparent KD of MS2 coat protein of 40 nM or more.
F
